src = patent US9951046B2

target: human TRPA1 (Homo sapiens, UniProt O75762); construct: expressed in transfected cells; test: Cell-based functional intracellular calcium ([Ca2+]i) assay, Fluo-4/Fluo-8, FlexStation, challenge with reference TRPA1 agonist (FFA, AITC or 4-HNE); conditions: HEK293 cells expressing human TRPA1; IC50 class after addition of reference TRPA1 agonist (FFA, AITC or 4-HNE); read-out: human TRPA1-HEK Activity
Sequence (O75762 whole entry): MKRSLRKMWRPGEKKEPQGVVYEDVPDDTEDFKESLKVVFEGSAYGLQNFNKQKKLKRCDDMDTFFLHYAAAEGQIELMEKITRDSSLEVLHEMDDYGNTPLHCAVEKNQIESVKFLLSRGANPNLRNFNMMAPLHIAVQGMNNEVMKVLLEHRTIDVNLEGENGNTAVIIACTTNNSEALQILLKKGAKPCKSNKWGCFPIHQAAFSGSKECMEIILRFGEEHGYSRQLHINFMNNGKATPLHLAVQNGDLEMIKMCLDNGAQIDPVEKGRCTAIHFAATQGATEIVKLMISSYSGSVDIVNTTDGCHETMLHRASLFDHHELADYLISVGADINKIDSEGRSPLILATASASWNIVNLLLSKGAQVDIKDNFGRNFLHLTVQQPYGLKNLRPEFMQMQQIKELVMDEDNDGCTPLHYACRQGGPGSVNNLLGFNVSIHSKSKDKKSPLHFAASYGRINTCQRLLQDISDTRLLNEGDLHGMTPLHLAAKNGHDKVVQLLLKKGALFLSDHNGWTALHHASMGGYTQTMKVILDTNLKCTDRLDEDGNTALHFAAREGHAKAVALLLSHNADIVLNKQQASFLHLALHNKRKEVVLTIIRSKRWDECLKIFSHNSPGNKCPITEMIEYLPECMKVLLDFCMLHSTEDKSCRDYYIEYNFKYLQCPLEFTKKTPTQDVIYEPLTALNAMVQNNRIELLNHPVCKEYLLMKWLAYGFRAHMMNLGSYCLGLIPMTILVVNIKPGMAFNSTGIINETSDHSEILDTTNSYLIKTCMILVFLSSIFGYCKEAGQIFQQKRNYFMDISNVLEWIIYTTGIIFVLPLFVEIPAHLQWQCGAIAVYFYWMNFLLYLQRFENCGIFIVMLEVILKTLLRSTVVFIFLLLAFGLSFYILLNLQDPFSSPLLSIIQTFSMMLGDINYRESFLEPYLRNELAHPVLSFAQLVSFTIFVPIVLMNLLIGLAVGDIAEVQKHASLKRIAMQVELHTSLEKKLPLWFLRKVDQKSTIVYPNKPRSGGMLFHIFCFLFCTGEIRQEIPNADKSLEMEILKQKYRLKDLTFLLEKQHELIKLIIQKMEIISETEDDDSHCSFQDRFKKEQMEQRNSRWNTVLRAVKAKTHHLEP
property name: IC50

Here are 2 compounds together with their reported answers.
For the compound Cc1c(C(=O)N2CCC3(CC2)C(=O)NCN3c2ccc(F)cc2)nn(-c2cc(F)c(F)c(F)c2)c1-c1cccnc1 , give its reported IC50.
1 to 5000 nM

For the compound O=C(c1cc(-c2cccnc2)n(-c2cc(F)c(C(F)(F)F)cc2F)n1)N1CCC(n2c(=O)[nH]c3ccc(F)c(F)c32)CC1 , give its reported IC50.
1 to 5000 nM

Next:
For the compound O=C(c1nn(-c2ccc(F)c(C(F)(F)F)c2)c2c1CCc1cccnc1-2)N1CCC2(CC1)C(=O)NCN2c1ccc(F)cc1 , give its reported IC50.
1 to 5000 nM
